From: patent US20090105305A1

- SYSTEM_NAME: human Fatty Acid Synthase (Homo sapiens, UniProt P49327)
- Construct: made in house
- Sequence (P49327 whole entry): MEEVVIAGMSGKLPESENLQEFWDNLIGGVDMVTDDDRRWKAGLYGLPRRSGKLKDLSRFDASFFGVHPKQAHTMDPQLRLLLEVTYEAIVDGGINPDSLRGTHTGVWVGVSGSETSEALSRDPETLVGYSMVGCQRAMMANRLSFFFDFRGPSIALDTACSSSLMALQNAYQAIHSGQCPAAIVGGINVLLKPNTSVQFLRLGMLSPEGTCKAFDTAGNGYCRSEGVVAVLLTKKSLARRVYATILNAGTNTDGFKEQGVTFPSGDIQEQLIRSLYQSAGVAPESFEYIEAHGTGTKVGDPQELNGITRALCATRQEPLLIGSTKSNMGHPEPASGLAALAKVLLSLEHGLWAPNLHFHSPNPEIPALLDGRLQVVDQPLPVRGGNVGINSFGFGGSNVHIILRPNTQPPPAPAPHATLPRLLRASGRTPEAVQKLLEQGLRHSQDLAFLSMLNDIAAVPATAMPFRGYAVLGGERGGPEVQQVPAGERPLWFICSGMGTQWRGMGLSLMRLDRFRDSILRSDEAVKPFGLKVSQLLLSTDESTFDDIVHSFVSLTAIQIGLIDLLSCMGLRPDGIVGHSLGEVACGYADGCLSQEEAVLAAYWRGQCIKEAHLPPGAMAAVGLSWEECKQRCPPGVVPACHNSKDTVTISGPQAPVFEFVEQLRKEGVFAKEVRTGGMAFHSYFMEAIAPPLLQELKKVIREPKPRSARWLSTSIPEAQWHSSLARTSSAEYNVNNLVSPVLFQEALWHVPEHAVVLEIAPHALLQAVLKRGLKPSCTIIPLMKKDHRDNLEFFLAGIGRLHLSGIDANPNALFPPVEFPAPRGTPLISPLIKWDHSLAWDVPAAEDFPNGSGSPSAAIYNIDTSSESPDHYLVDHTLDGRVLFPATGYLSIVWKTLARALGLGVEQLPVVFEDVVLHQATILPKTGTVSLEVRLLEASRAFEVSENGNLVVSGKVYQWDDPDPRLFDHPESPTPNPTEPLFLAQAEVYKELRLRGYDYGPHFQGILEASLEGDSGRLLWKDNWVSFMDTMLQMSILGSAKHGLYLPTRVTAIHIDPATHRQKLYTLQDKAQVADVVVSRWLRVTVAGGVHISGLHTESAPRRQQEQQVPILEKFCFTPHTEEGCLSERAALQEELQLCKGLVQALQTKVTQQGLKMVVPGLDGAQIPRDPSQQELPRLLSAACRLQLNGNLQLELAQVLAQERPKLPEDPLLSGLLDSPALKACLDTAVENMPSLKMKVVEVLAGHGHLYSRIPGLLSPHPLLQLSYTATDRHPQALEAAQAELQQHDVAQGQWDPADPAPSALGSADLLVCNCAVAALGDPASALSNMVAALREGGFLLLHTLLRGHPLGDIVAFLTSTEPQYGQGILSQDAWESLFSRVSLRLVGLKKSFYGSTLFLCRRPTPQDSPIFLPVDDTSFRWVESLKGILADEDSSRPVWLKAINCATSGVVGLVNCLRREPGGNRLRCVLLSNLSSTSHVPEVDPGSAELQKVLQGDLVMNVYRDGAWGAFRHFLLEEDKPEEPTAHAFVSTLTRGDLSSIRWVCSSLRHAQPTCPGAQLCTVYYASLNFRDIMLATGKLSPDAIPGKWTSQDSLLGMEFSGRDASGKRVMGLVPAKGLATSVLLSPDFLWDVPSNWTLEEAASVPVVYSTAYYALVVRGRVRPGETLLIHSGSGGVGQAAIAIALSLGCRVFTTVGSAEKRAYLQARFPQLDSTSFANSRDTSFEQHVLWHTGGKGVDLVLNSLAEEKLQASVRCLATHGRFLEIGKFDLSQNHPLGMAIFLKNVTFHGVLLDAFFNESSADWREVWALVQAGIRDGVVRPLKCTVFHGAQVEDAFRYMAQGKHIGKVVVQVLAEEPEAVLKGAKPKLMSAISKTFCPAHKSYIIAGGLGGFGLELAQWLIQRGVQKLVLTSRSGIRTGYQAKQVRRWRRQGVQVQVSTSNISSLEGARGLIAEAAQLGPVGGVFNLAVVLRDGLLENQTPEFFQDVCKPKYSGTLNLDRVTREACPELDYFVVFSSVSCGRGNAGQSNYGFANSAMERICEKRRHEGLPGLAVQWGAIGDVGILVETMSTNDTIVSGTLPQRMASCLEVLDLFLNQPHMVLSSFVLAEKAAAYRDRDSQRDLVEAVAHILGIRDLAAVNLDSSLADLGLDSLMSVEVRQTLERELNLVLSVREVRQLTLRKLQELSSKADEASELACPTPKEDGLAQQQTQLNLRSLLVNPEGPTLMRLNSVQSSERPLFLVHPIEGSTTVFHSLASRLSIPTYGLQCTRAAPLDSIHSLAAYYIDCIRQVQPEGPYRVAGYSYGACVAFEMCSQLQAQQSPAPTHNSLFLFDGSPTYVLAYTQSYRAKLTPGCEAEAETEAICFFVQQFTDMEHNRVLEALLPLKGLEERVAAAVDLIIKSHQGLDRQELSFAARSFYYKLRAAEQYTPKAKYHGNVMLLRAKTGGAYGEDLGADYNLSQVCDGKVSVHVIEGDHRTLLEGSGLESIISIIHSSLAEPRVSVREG
- PROCEDURE_DETAILS: Human FAS enzyme assay (decrease in NADPH fluorescence)
- Type: biochemical
- EXPERIMENTAL_PARAMETERS: % inhibition at a concentration of 100 micromolar
ATTRIBUTE_MEASURED: inhibition at 100 µM (%)

COMPOUND	ATTRIBUTE_MEASURED	UNIT_STRING	MEASURED
COc1ccc(C(=O)N2CCC(c3ccc(C#N)cc3)CC2)cc1NS(=O)(=O)Cc1ccccc1 [Example 89]	inhibition at 100 µM	%	78
Cc1ccc(C(=O)N2CCC(c3ccc(C#N)cc3)CC2)cc1NS(=O)(=O)C(C)CO (stereo not shown) [Example 138]	inhibition at 100 µM	%	100
Cc1ccc(C(=O)N2CCC(c3ccc(C#N)cc3)CC2)cc1NS(=O)(=O)c1cn(C)nc1C [Example 139]	inhibition at 100 µM	%	83
N#Cc1ccc(C2CCN(C(=O)c3ccc(Cl)c(NS(=O)(=O)c4ccc(Cl)cc4)c3)CC2)cc1 [Example 192]	inhibition at 100 µM	%	67
CCc1ccc(C(=O)N2CCC(c3ccc(C#N)cc3)CC2)cc1NS(=O)(=O)C1CCS(=O)(=O)C1 (stereo not shown) [Example 124]	inhibition at 100 µM	%	82
Cc1ccc(C(=O)N2CCC(c3ccc(C#N)cc3)CC2)cc1NS(=O)(=O)CC(=O)NCCO [Example 92]	inhibition at 100 µM	%	80
Cc1nc(C)c(S(=O)(=O)Nc2cc(C(=O)N3CCC(c4ccc(C#N)cc4)CC3)ccc2C)s1 [Example 106]	inhibition at 100 µM	%	95
Cc1ccc(C(=O)N2CCC(c3ccc(C#N)cc3)CC2)cc1NS(=O)(=O)CCCCl [Example 9]	inhibition at 100 µM	%	95
Cc1ccc(C(=O)N2CCC(c3ccc(OCC#N)cc3)CC2)cc1NS(C)(=O)=O [Example 181]	inhibition at 100 µM	%	100
Cc1cc(C)c(C(=O)N2CCC(c3ccc(C#N)cc3)CC2)cc1NS(=O)(=O)C1CC1 [Example 116]	inhibition at 100 µM	%	92
Cc1ccc(C(=O)N2CCC(c3ccc(C#N)cc3)CC2)cc1NS(=O)(=O)CCCN1CCOCC1 [Example 67]	inhibition at 100 µM	%	92
Cc1ccc(C(=O)N2CCC(c3ccc(-c4ccccn4)cc3)CC2)cc1NS(C)(=O)=O [Example 173]	inhibition at 100 µM	%	64
Cc1ccc(C(=O)N2CCC(c3ccc(C#N)cc3)CC2)cc1NS(=O)(=O)CCNS(=O)(=O)C(C)C [Example 80]	inhibition at 100 µM	%	90
Cc1ccc(C(=O)N2CCC(c3ccc(C(N)=O)cc3)CC2)cc1NS(C)(=O)=O [Example 112]	inhibition at 100 µM	%	79
COc1ccc(NS(=O)(=O)Cc2ccccc2)cc1C(=O)N1CCC(c2ccc(C#N)cc2)CC1 [Example 31]	inhibition at 100 µM	%	83
Cc1ccc(C(=O)N2CCC(c3ccc(C#N)cc3)CC2)cc1NS(=O)(=O)CCCNCc1cccnc1 [Example 141]	inhibition at 100 µM	%	93
Cc1ccc(C(=O)N2CCC(c3ccc(C#N)cc3)CC2)cc1NS(=O)(=O)Cc1ccccc1 [Example 4]	inhibition at 100 µM	%	81
Cc1ccc(C(=O)N2CCC(c3ccc(C#N)cc3)CC2)cc1NS(=O)(=O)c1ccccc1C(=O)NC(C)C [Example 208]	inhibition at 100 µM	%	75
Cc1ccc(C(=O)N2CCC(c3ccc(C#N)cc3)CC2)cc1NS(=O)(=O)CC(=O)N(C)C [Example 91]	inhibition at 100 µM	%	80
CCS(=O)(=O)NCc1ccc(C2CCN(C(=O)c3ccc(C)c(NS(C)(=O)=O)c3)CC2)cc1 [Example 227]	inhibition at 100 µM	%	87.4
COC(=O)CCS(=O)(=O)Nc1cc(C(=O)N2CCC(c3ccc(C#N)cc3)CC2)ccc1C [Example 144]	inhibition at 100 µM	%	88
CC(=O)N1CCC(S(=O)(=O)Nc2cc(C(=O)N3CCC(c4ccc(C#N)cc4)CC3)ccc2C)C1 (stereo not shown) [Example 153]	inhibition at 100 µM	%	97
Cc1ccc(C(=O)N2CCC(c3ccc(C(=O)N(C)C)cc3)CC2)cc1NS(=O)(=O)Cc1ccccc1 [Example 204]	inhibition at 100 µM	%	78
Cc1ccc(NS(=O)(=O)C2CCCCC2)cc1C(=O)N1CCC(c2ccc(C#N)cc2)CC1 [Example 42]	inhibition at 100 µM	%	90
Cc1ccc(NS(=O)(=O)Cc2cccc(F)c2)cc1C(=O)N1CCC(c2ccc(C#N)cc2)CC1 [Example 52]	inhibition at 100 µM	%	91
CS(=O)(=O)c1ccc(C(=O)N2CCC(c3ccc(C#N)cc3)CC2)cc1NS(=O)(=O)Cc1ccccc1 [Example 135]	inhibition at 100 µM	%	100
Cc1ccc(NS(=O)(=O)C(C)C)cc1C(=O)N1CCC(c2ccc(C#N)cc2)CC1 [Example 32]	inhibition at 100 µM	%	85
Cc1ccc(C(=O)N2CCC(c3ccc(C#N)cc3)CC2)cc1NS(=O)(=O)C(C)(C)Cl [Example 224]	inhibition at 100 µM	%	108
Cc1ccc(C(=O)N2CCC(c3ccc(C(F)(F)F)cc3)CC2)cc1NS(C)(=O)=O [Example 157]	inhibition at 100 µM	%	78
Cc1cc(C)c(C(=O)N2CCC(c3ccc(C#N)cc3)CC2)cc1NS(C)(=O)=O [Example 28]	inhibition at 100 µM	%	93
Cc1ccc(NS(=O)(=O)c2ccc(Cl)s2)cc1C(=O)N1CCC(c2ccc(C#N)cc2)CC1 [Example 45]	inhibition at 100 µM	%	83
